- Tested target: T1, rat PTH-1R (rat PTHR endogenously expressed on UMR-106 rat osteosarcoma cells) (rat, UniProt P25961 27-591)
- T1 sequence (looked up): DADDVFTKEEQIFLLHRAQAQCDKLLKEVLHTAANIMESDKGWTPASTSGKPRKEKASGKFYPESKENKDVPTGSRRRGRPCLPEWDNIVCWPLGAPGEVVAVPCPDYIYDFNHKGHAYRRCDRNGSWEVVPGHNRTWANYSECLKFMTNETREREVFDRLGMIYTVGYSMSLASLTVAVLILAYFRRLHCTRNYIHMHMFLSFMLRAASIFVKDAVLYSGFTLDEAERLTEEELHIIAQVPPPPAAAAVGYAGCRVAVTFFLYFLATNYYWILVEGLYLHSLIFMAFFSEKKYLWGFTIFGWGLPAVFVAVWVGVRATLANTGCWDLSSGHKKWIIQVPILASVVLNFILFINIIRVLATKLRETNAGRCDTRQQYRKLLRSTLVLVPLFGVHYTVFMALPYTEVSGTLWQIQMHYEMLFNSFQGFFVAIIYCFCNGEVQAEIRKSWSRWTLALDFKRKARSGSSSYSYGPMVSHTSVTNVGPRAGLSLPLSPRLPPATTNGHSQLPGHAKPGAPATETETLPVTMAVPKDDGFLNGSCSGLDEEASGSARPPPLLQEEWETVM
- Run description: cell-based or functional assay
Where no end group is shown, it is not given here. [ ]: non-standard residue; d: D form. The star is where a group is joined. Bip(2'-Et-4'-OMe) = CCc1cc(OC)ccc1-c1ccc(C[C@H](N)C(=O)O)cc1; αMePhe(2,6-F2) = C[C@](N)(Cc1c(F)cccc1F)C(=O)O; αMePhe(2-F) = C[C@](N)(Cc1ccccc1F)C(=O)O; hhPhe = N[C@@H](CCCc1ccccc1)C(=O)O; hArg = N=C(N)NCCCC[C@H](N)C(=O)O; αMeF = C[C@](N)(Cc1ccccc1)C(=O)O; Cit = NC(=O)NCCC[C@H](N)C(=O)O; NMeM = CN[C@@H](CCSC)C(=O)O; Decanoyl = CCCCCCCCCC(=O)*; Nle = CCCC[C@H](N)C(=O)O; Ac5c = NC1(C(=O)O)CCCC1; Ac3c = NC1(C(=O)O)CC1; Aib = CC(C)(N)C(=O)O
Experimental endpoint: cAMP released with respect to control, 100 nM peptide, UMR-106 cells

Dear colleague, please send me the reported cAMP released with respect to control, 100 nM peptide, UMR-106 cells for [Aib]V[Ac5c]EIQ[αMePhe(2-F)][Nle]HQ[hArg]AK[αMeF] [Seq. ID. 30] when you can.
80 percent of control

Dear colleague, please send me the reported cAMP released with respect to control, 100 nM peptide, UMR-106 cells for [Ac3c]V[Aib]EIQL[NMeM]HQ[hArg]AK(Decanoyl)[Bip(2'-Et-4'-OMe)] [Seq. ID. 678] when you can.
112 percent of control

Dear colleague, please send me the reported cAMP released with respect to control, 100 nM peptide, UMR-106 cells for [Aib]V[Aib]EIQLMHQ[hArg][Aib]K[αMeF] [Seq. ID. 9] when you can.
52 percent of control

Dear colleague, please send me the reported cAMP released with respect to control, 100 nM peptide, UMR-106 cells for [Ac5c]V[Aib]EIQ[αMePhe(2,6-F2)][Nle]HQ[Cit]A[Cit][αMePhe(2-F)] [Seq. ID. 351] when you can.
119 percent of control

Dear colleague, please send me the reported cAMP released with respect to control, 100 nM peptide, UMR-106 cells for [Ac3c]V[Aib]EIQ[αMePhe(2,6-F2)][Nle]HQ[hArg][Aib]K[αMeF] [Seq. ID. 41] when you can.
97 percent of control

Dear colleague, please send me the reported cAMP released with respect to control, 100 nM peptide, UMR-106 cells for [Ac3c]V[Ac3c]EIQLMHQ[hArg]AK[Bip(2'-Et-4'-OMe)][hhPhe] [Seq. ID. 609] when you can.
120 percent of control

Recorded values, source patent US8383581B2.
